Molecular target: B2 bradykinin receptor (Homo sapiens, UniProt P30411); note: in other assays of this panel Not Active means under 50% inhibition at 10 µM
Sequence (P30411 whole entry): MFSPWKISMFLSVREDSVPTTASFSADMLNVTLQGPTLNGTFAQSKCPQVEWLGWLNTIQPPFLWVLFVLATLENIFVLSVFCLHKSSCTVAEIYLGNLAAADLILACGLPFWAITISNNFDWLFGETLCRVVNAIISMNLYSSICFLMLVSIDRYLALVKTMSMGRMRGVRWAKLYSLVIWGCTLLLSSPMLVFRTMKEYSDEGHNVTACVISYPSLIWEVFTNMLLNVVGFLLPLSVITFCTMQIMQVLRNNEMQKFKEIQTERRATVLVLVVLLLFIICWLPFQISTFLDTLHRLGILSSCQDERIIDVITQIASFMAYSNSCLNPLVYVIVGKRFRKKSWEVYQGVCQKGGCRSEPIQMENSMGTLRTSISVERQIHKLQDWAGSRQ
Type: cell membranes, Membrane
Settings: chem-1
readout kind: Ki

Examples with their reported Ki follow.
# substance, test result
rows = [
    ("OXALIPLATIN", "Not Active"),
    ("GOLD SODIUM THIOMALATE", "Not Active"),
    ("CISPLATIN", "Not Active"),
    ("CARBOPLATIN", "Not Active"),
]

Moving on to another substance below.
Please report the measured Ki for `IVERMECTIN`
Not Active
